Tested on: SSPN-HiBiT protein (sarcospan)
Experiment summary: C2C12 SSPN-HiBiT protein reporter assay (12-well and 384-well format)
Type: cell-based, murine
Settings: Table 1; *p<0.05
Structures can show the parent of a compound that is named as a salt.
Experimental readout: SSPN-HiBiT, fold change over vehicle

Answered examples (6):
For the record "CCN(CC)C(=O)c1ccc(NC(=O)c2cnc3cc(N(CC)CC)ccc3c2)cc1" , what value of SSPN-HiBiT, fold change over vehicle is listed for SSPN-HiBiT protein (sarcospan)? 1.75* fold change over vehicle

Do the same for "CCN(CC)c1ccc2cc(C(=O)Nc3ccc(C(=O)N4CCCCCC4)cc3)c(=O)oc2c1" please 2.29* fold change over vehicle

Entry "CCN(CC)C(=O)c1ccc(NC(=O)c2cc3ccc(F)cc3[nH]c2=O)cc1" please 1.45* fold change over vehicle

Let us now turn to "CCN(CC)C(=O)c1ccc(NC(=O)c2c(C)c3ccccc3[nH]c2=O)cc1" 1.21* fold change over vehicle

Next entry: "CCN(CC)c1ccc2cc(C(=O)Nc3nnc(C(=O)N4CCOCC4)[nH]3)cnc2c1" 1.34* fold change over vehicle

Query "COc1ccc2nc(C)c(C(=O)Nc3ccc(C(=O)N4CCCOCC4)cc3)cc2c1" next 1.22* fold change over vehicle

Each of the following entries comes with a recorded value; kindly state SSPN-HiBiT, fold change over vehicle for each.
1. Nc1ccc2ncc(C(=O)Nc3ccc(C(=O)N4CCCOCC4)cc3)cc2c1 [hydrochloride]
2. CCN(CC)C(=O)c1ccc(NC(=O)c2cc3cc(OC)ccc3[nH]c2=O)cc1
3. COc1ccc2[nH]c(=O)c(C(=O)Nc3ccc(C(=O)N4CCCOCC4)cc3)cc2c1

["1.09* fold change over vehicle", "1.51* fold change over vehicle", "2.4* fold change over vehicle"]

* * *

Tested on: SSPN-HiBiT protein (sarcospan)
Experiment summary: C2C12 SSPN-HiBiT protein reporter assay (12-well and 384-well format)
Format: cell-based, murine
Settings: Table 2; *p<0.05
What SSPN-HiBiT, fold change over vehicle was measured for each of the following?

Examples from the recorded data:
Can you share its SSPN-HiBiT, fold change over vehicle? I mean this compound: "Cc1cc2cc(C#N)c(S(=O)(=O)CC(=O)c3ccc(F)cc3)nc2cc1C" 1.23* fold change over vehicle

Also, "Cc1cc2cc(C#N)c(OCC(=O)c3ccc(N(C)C)cc3)nc2cc1C" please. 1.04* fold change over vehicle

// for each compound in input: emit SSPN-HiBiT, fold change over vehicle
1. Cc1cc2cc(C#N)c(OCC(=O)c3ccc(O)cc3)nc2cc1C
2. Cc1cc(C)c(C#N)c(OCC(=O)c2ccc(N(C)C)cc2)n1
3. Cc1cc2cc(C#N)c(OCC(=O)c3ccc(F)cc3F)nc2cc1C
4. COc1ccc(C(=O)COc2nc3cc(C)c(C)cc3cc2C#N)cc1
5. Cc1cc(C)c2nc(OCC(=O)c3ccc(N(C)C)cc3)c(C#N)cc2c1
6. Cc1cc2cc(C#N)c(SCC(=O)c3ccc(F)cc3)nc2cc1C

["1.21 fold change over vehicle", "1.09* fold change over vehicle", "1.22* fold change over vehicle", "1.27* fold change over vehicle", "1.3* fold change over vehicle", "1.48* fold change over vehicle"]

* * *

Tested on: SSPN-HiBiT protein (sarcospan)
Experiment summary: C2C12 SSPN-HiBiT protein reporter assay (12-well and 384-well format)
Type: cell-based, murine
Settings: Table 1; *p<0.05
Can you tell me SSPN-HiBiT, fold change over vehicle for the items I'm about to list?

Which SSPN-HiBiT, fold change over vehicle is reported for this molecule? "CCN(CC)c1ccc2cc(C(=O)Nc3ccc(C(=O)N4CCCCCC4)cc3)cnc2c1" 1.62* fold change over vehicle

Queued: "CCN(CC)C(=O)c1ccc(NC(=O)c2cc3ccccc3nc2C)cc1" 1.08* fold change over vehicle

Same question for "CCN(CC)c1ccc2cc(C(=O)Nc3ccc(C(=O)N4CCCOCC4)cc3)cnc2c1" please. 1.3* fold change over vehicle

Give SSPN-HiBiT, fold change over vehicle for all molecules that follow.
1. CCN(CC)c1ccc2cc(C(=O)Nc3ccc(C(=O)N4CCN(C)CC4)cc3)cnc2c1
2. COc1ccc2nc(C)c(C(=O)Nc3ccc(C(=O)N4CCCCCC4)cc3)cc2c1
3. COc1ccc2c(c1)CC(C(=O)Nc1ccc(C(=O)N3CCN(C)CC3)cc1)C(=O)N2 (stereo not shown)
4. COc1ccc2[nH]c(=O)c(C(=O)Nc3ccc(C(=O)N4CCCCCC4)cc3)cc2c1

["1.47* fold change over vehicle", "1.4* fold change over vehicle", "1.46* fold change over vehicle", "1.03 fold change over vehicle"]

* * *

Experiment summary: Half-life analysis in CD-1 mouse plasma
Type: in vitro ADME, CD-1 mice
Settings: 37° C.
Experimental readout: half-life at 1 μM (h)
One number for each entry, in h.

What does the record list as half-life at 1 μM for "CCN(CC)c1ccc2cc(C(=O)Nc3ccc(C(=O)N4CCCCCC4)cc3)c(=O)oc2c1" ? 7.7

Each recorded value in this set is attributed to patent US20230348394A1.
